A collection of molecules and their measured Pancreatic Lipase (Porcine) inhibition at 10 μM (%)
target: Pancreatic Lipase (Porcine) (Sus scrofa, UniProt P00591); construct: purchased Sigma L3126; type: biochemical; conditions: 10 μM
Sequence (P00591 whole entry): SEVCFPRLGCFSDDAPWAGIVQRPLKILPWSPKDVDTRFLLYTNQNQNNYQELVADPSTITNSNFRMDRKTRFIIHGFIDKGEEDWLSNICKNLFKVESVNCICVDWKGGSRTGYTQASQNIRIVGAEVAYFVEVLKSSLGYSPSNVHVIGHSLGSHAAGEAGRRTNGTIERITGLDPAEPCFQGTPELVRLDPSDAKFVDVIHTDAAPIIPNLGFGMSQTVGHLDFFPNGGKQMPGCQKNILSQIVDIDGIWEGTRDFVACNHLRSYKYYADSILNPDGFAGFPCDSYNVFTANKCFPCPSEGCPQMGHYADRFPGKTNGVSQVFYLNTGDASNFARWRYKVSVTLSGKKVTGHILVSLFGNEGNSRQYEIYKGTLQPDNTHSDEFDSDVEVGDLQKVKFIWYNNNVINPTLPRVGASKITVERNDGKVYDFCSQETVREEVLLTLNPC
Number only, in %; omit the unit.

Completed entries (count: 3):
CCCCCCCCCCC[C@@H](C[C@@H]1OC(=O)[C@H]1CCCCCC)OC(=O)[C@@H](NC=O)[C@H](C)CC [Compound 5]    98
CCCCCCCCCCC[C@@H](C[C@@H]1OC(=O)[C@H]1CCCCCC)OC(=O)[C@H](NC=O)[C@@H](C)CC [Compound 7]    95
CCCCCCCCCCCC(CC1OC(=O)C1CCCCCC)OC(=O)C(NC=O)C(C)CC (stereo not shown) [Compound 6]    99

Field: next molecule
Give the measured Pancreatic Lipase (Porcine) inhibition at 10 μM (%) of CCCCCCCCCCC[C@@H](C[C@@H]1OC(=O)[C@H]1CCCCCC)OC(=O)[C@@H](NC=O)[C@@H](C)CC [Compound 4] .
99

###

A collection of compounds and their measured Lipoprotein Lipase (Bacterial) inhibition at 10 μM (%)
tested on: Lipoprotein Lipase (Bacterial); assay type: biochemical, Pseudomonas sp.; settings: 10 μM
Number only, in %; omit the unit.

Completed entries (count: 2):
CCCCCCCCCCC[C@@H](C[C@@H]1OC(=O)[C@H]1CCCCCC)OC(=O)[C@@H](NC=O)[C@H](C)CC    61
CCCCCCC[C@@H]1OC(=O)[C@H]1CCCCCC (relative stereo) [Compound 10, trans-3-hexyl-4-heptyloxetan-2-one]    67

Field: next compound
// lookup Lipoprotein Lipase (Bacterial) inhibition at 10 μM (%) | system=Lipoprotein Lipase (Bacterial) | key= `CCCCCCCCCCC[C@@H](C[C@@H]1OC(=O)[C@H]1CCCCCC)OC(=O)[C@H](NC=O)[C@@H](C)CC`
68

###

A collection of compounds and their measured mDAGLα inhibition at 1000 nM (%)
target: UniProt Q6WQJ1; assay: Radio-TLC assay with [14C]SAG substrate, mDAGLα; conditions: 1000 nM
Sequence (Q6WQJ1 whole entry): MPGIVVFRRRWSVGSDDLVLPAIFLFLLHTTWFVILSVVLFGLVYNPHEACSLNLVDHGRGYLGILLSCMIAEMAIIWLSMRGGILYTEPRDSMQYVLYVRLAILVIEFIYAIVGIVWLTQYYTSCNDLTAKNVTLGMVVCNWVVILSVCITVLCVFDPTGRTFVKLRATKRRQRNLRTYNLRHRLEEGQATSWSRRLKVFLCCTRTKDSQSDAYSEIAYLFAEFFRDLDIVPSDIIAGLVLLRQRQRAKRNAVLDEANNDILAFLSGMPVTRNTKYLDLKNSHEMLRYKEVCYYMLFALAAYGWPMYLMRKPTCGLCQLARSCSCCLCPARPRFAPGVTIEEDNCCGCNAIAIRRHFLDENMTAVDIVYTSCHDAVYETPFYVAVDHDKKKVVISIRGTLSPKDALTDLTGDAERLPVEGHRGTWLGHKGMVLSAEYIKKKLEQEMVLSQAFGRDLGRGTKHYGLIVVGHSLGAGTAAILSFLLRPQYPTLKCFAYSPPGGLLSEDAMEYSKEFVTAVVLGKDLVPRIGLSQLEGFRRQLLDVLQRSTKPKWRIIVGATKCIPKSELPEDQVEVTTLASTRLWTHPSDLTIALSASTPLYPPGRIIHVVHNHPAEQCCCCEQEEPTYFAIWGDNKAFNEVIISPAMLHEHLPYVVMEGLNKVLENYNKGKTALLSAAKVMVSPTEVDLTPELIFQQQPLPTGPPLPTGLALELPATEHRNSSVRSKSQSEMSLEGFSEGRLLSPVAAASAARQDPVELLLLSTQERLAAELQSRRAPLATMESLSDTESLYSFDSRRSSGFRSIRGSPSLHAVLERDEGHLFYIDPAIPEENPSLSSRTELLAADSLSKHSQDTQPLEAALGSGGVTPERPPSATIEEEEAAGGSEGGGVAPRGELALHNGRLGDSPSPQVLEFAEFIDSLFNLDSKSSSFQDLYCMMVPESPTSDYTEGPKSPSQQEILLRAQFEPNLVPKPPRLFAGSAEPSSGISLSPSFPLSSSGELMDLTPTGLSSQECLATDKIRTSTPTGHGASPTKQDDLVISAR
Report the figure along with its unit, number first.

CCCCCCCCCCC[C@@H](C[C@@H]1OC(=O)[C@H]1CCCCCC)OC(=O)[C@H](NC=O)[C@@H](C)CC [Compound 7]    75%
CCCCCCCCCCCC(CC1OC(=O)C1CCCCCC)OC(=O)C(NC=O)C(C)CC (stereo not shown) [Compound 6]    69%
CCCCCCCCCCC[C@@H](C[C@@H]1OC(=O)[C@H]1CCCCCC)OC(=O)[C@@H](NC=O)[C@H](C)CC [Compound 5]    88%

Field: next compound
Give the measured mDAGLα inhibition at 1000 nM (%) of CCCCCCCCCCC[C@@H](C[C@@H]1OC(=O)[C@H]1CCCCCC)OC(=O)[C@@H](NC=O)[C@@H](C)CC [Compound 4] .
96%
